assay-explanation: specific heat capacity at constant pressure; cn = amount concentration of the nth substance listed, in mol/dm3
stated-conditions: 308.65 K; 101 kPa; Liquid; heat flux microcalorimetry; c1 = 0.01
endpoint: specific heat capacity (J/K/kg)

Examples from the recorded data:
> print(dat)
                                   compound  quantitative.result
1  [Cl-].c1ccc([P+](c2ccccc2)(c2ccccc2)c2ccccc2)cc1 [tetraphenylphosphonium chloride] + CO               2548.5
2  [Cl-].c1ccc([P+](c2ccccc2)(c2ccccc2)c2ccccc2)cc1 [tetraphenylphosphonium chloride] + CC#N               2269.1

[A] [Cl-].c1ccc([P+](c2ccccc2)(c2ccccc2)c2ccccc2)cc1 [tetraphenylphosphonium chloride] + CCO
[B] [Cl-].c1ccc([P+](c2ccccc2)(c2ccccc2)c2ccccc2)cc1 [tetraphenylphosphonium chloride] + O
# input Smaller specific heat capacity value? Options are A and B Write the label of whichever entry you select.
# output A
(A: 2545.7 J/K/kg, B: 4203.6 J/K/kg)

* * *

assay-explanation: specific heat capacity at constant pressure; cn = amount concentration of the nth substance listed, in mol/dm3
stated-conditions: 314.65 K; 101 kPa; Liquid; heat flux microcalorimetry; c1 = 0.02
endpoint: specific heat capacity (J/K/kg)

// below: answered molecules
> print(dat)
                                   molecule  quantitative.result
1  [Cl-].c1ccc([P+](c2ccccc2)(c2ccccc2)c2ccccc2)cc1 [tetraphenylphosphonium chloride] + CC#N               2274.3
2  [Cl-].c1ccc([P+](c2ccccc2)(c2ccccc2)c2ccccc2)cc1 [tetraphenylphosphonium chloride] + CO               2599.5

[A] [Cl-].c1ccc([P+](c2ccccc2)(c2ccccc2)c2ccccc2)cc1 [tetraphenylphosphonium chloride] + CCO
[B] [Cl-].c1ccc([P+](c2ccccc2)(c2ccccc2)c2ccccc2)cc1 [tetraphenylphosphonium chloride] + O
# input // select label with min value of measured specific heat capacity from [ A , B ] Refer to your chosen item by its label in the answer.
# output A

* * *

assay-explanation: specific heat capacity at constant pressure; cn = amount concentration of the nth substance listed, in mol/dm3
stated-conditions: 314.65 K; 101 kPa; Liquid; heat flux microcalorimetry; c1 = 0.01
endpoint: specific heat capacity (J/K/kg)

[P] [Cl-].c1ccc([P+](c2ccccc2)(c2ccccc2)c2ccccc2)cc1 [tetraphenylphosphonium chloride] + O
[Q] [Cl-].c1ccc([P+](c2ccccc2)(c2ccccc2)c2ccccc2)cc1 [tetraphenylphosphonium chloride] + CC#N
# input Between the entries labelled P and Q , which has a larger specific heat capacity value on record? Please indicate the selected item by its label.
# output P

* * *

assay-explanation: cn = amount concentration of the nth substance listed, in mol/dm3
stated-conditions: 308.65 K; 101 kPa; Liquid; c1 = 0.05
endpoint: mass density (kg/m3)

> print(dat)
                                   compound      endpoint  unit.label  quantitative.result
1  [Cl-].c1ccc([P+](c2ccccc2)(c2ccccc2)c2ccccc2)cc1 [tetraphenylphosphonium chloride] + CCO  mass density       kg/m3               784.24
2  [Cl-].c1ccc([P+](c2ccccc2)(c2ccccc2)c2ccccc2)cc1 [tetraphenylphosphonium chloride] + CC#N  mass density       kg/m3               776.18
3  [Cl-].c1ccc([P+](c2ccccc2)(c2ccccc2)c2ccccc2)cc1 [tetraphenylphosphonium chloride] + CO  mass density       kg/m3               787.22
4  [Cl-].c1ccc([P+](c2ccccc2)(c2ccccc2)c2ccccc2)cc1 [tetraphenylphosphonium chloride] + O  mass density       kg/m3               996.84
